System: CP201
Test: qHTS profiling for inhibitors of Plasmodium falciparum proliferation (AID 504749);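 note: 0% = DMSO vehicle and full inhibition = artemisinin control; nearly all actives have a fitted effect of over 60% in size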
Conditions: P. falciparum in erythrocytes, SYBR Green DNA, 72 h; series mostly up to 28.7 µM
Records with an inconclusive call do not appear. The source made the active and inactive calls. Calls come from the whole dose curve; as a rule, active = well fitted inhibition curve with a large enough effect; inconclusive = small, poorly fitted or top-dose-only effect; inactive = flat fitted curve, though single readings scatter.
EXPERIMENTAL ENDPOINT: outcome

Worked examples follow.
| COMPOUND | EXPERIMENTAL ENDPOINT | DATA VALUE |
| --- | --- | --- |
| Cc1cc(C(C#N)c2ccc(Cl)cc2)c(Cl)cc1NC(=O)c1cc(I)cc(I)c1O (configuration not stated) | outcome | inactive |
| Cc1cc2c(cc1S(N)(=O)=O)S(=O)(=O)CCC2 | outcome | inactive |
| CC1(C)CO[C@@H](CC(=O)O)CN1 | outcome | inactive |
| CCCCCCCCCCCCOS(=O)(=O)O | outcome | inactive |
| NC(CSCC(=O)O)C(=O)O (configuration not stated) | outcome | inactive |
| NCCNCCNCCN | outcome | inactive |

Now for the compound whose outcome we want.
Noted for Cc1cc(CC(=O)O)n(C)c1C(=O)c1ccc(Cl)cc1 : its outcome reads inactive

###

Tested on: CP215
Test: qHTS profiling for inhibitors of Plasmodium falciparum proliferation (AID 504749);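 note: 0% = DMSO vehicle and full inhibition = artemisinin control; nearly all actives have a fitted effect of over 60% in size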
Conditions: P. falciparum in erythrocytes, SYBR Green DNA, 72 h; series mostly up to 28.7 µM
Inconclusive results are not listed. Calls of active or inactive are those of the source. The call rests on the fitted dose curve; in most records, active means well fitted inhibition curve with a large enough effect; inconclusive means small, poorly fitted or top-dose-only effect; inactive means flat fitted curve, though single readings scatter.
EXPERIMENTAL ENDPOINT: outcome

Some compounds with recorded outcome:
| COMPOUND | EXPERIMENTAL ENDPOINT | DATA VALUE |
| --- | --- | --- |
| Nc1ccc(S(=O)(=O)Nc2nccs2)cc1 | outcome | inactive |
| Cc1cc(CC(=O)O)n(C)c1C(=O)c1ccc(Cl)cc1 | outcome | inactive |
| Cn1c(=O)c2c(ncn2CC2OCCO2)n(C)c1=O | outcome | inactive |
| OCC(O)CN1CCN(c2ccccc2)CC1 (configuration not stated) | outcome | inactive |
| Cc1cc(C(C#N)c2ccc(Cl)cc2)c(Cl)cc1NC(=O)c1cc(I)cc(I)c1O (configuration not stated) | outcome | inactive |
| CC1(C)[C@@H]2CC[C@@]1(C)C(=O)C2 | outcome | inactive |
| Nc1ccc(S(=O)(=O)Nc2ccc(Cl)nn2)cc1 | outcome | inactive |
| Cc1ncc(COP(=O)(O)O)c(C=O)c1O | outcome | inactive |
| O=C(O)COc1nn(Cc2ccccc2)c2ccccc12 | outcome | inactive |
| CC1=C(/C=C/C(C)=C/C=C/C(C)=C/C(=O)O)C(C)(C)CCC1 | outcome | inactive |

outcome measured on NCC(=O)CCC(=O)O = inactive

Noted for CCCCc1ncc(/C=C(\Cc2cccs2)C(=O)O)n1Cc1ccc(C(=O)O)cc1 : its outcome reads inactive

###

// max response lookup, one value per entry
Assay: qHTS Assay for Lipid Storage Modulators (AID 1519)
Settings: Drosophila S3 cells, BODIPY lipid droplet/cell ratio, laser cytometry; measured here: lipid channel max response; cells loaded with oleic acid
Results filed as inconclusive are left out.
Number only, in %; omit the unit.

// CCCCOC(=O)c1ccc(O)cc1 : max response value = -4.1

The molecule listed as OCC(O)CN1CCN(c2ccccc2)CC1 (configuration not stated) has a reported max response of 35.4

Looking up Oc1cccc(O)c1 , I see its max response listed as 16.6

// sample CCCn1cnc2c1c(=O)n(CCCCC(C)=O)c(=O)n2C , its max response was 50.9

So, O=C1NS(=O)(=O)c2ccccc21 ? Its max response was 29.2

Reported max response for Nc1cc(=O)[nH]c(N)n1 was -1.88

Notebook: CC(=O)c1ccc2c(c1)N(CCCN(C)C)c1ccccc1S2 , max response read as -1.83
